Hi there, I'd appreciate the recorded CC50 at 72 h for every entry that follows.
test: Cytotoxicity against human HepG2 cells incubated for 72 hrs by MTT assay; assay type: toxicity, cell-based

[
  {
    "smi": "Cc1cc(OCC(=O)Nc2ccc(N3CCC(c4ccccc4)CC3)cc2)c2cc(Br)ccc2n1",
    "CC50 at 72 h": "> 10 µM"
  },
  {
    "smi": "Cc1cc(OCC(=O)Nc2ccc(N3CCC(c4ccccc4)CC3)cc2)c2cc(Cl)ccc2n1",
    "CC50 at 72 h": "> 10 µM"
  },
  {
    "smi": "COc1ccc2nc(C)cc(OCC(=O)Nc3ccc(N4CCC(c5ccccc5)CC4)cc3)c2c1",
    "CC50 at 72 h": "> 10 µM"
  }
]

Attention now shifts to the item below.
Query :: Can you share its CC50 at 72 h? I mean this compound: COc1ccc2nc(C)cc(OCC(=O)Nc3ccc(N4CCC(c5ccc(OC(F)(F)F)cc5)CC4)cc3)c2c1
Result :: > 10 µM

Data credit: ChEMBL document CHEMBL5335868
